- MEASUREMENT PROTOCOL: Inhibition of bovine brain tubulin polymerization preincubated for 15 mins followed by GTP addition measured after 20 mins by spectrophotometric method
- Set-up: species or system Bos taurus
Listing: IC50 of selected compounds
MEASURED PARAMETER: IC50 (µM)

> print(dat)
                      smiles.representation  rel  value.reported
1   COc1ccc2c(c1O)CC=C2c1cc(OC)c(OC)c(OC)c1    =              11
2  COc1ccc2c(c1)CCCC/C=C\2c1cc(OC)c(OC)c(OC)c1    =               3
3  COc1cc(C2=CCc3c2ccc(OC)c3OP(=O)(O)O)cc(OC)c1OC    >              20
4    COc1ccc2c(c1)CC=C2c1cc(OC)c(OC)c(OC)c1    >              20
5  COc1cc(/C2=C/CCCCc3c2ccc(OC)c3OC)cc(OC)c1OC    =             4.5
6  COc1ccc(/C=C\c2cc(OC)c(OC)c(OC)c2)cc1OP(=O)(O)O    >              20
7  COc1ccc2c(c1O)CCCC/C=C\2c1cc(OC)c(OC)c(OC)c1    =             1.2
8  COc1cc(/C2=C/CCCCc3c2ccc(OC)c3OP(=O)([O-])[O-])cc(OC)c1OC.[Na+].[Na+]    >              20
9    COc1cc(C2=CCc3c2ccc(OC)c3OC)cc(OC)c1OC    >              20
